Reference source: paper PMC10920834

system: A549 cells; assay: Cell viability resazurin assay, A549 cells; assay type: cell-based, human; details: 24 h incubation
QUANTITY_NAME: IC50 (µM)
All answers are understood in µM, so give the number only.

// known answers, use as guide
COMPOUND: O=C1C=CC(=O)[N-]1.[C-]#[O+].[Fe+2].c1cc[cH-]c1.c1coc(P(c2ccco2)c2ccco2)c1 [2b, CpFe(CO)(P(Fu)3)(η^1-N-maleimidato)]
IC50 / µM: 73.5
//
COMPOUND: O=C1C=CC(=O)[N-]1.[C-]#[O+].[C-]#[O+].[Fe+2].c1cc[cH-]c1 [compound 1, CpFe(CO)2(η^1-N-maleimidato)]
IC50 / µM: 54.2

Now examine the next entry.
Reported IC50 (A549 cells) for entry O=C1C=CC(=O)[N-]1.[C-]#[O+].[Fe+2].c1cc[cH-]c1.c1ccc(OP(Oc2ccccc2)Oc2ccccc2)cc1 [3b, CpFe(CO)(P(OPh)3)(η^1-N-maleimidato)] is 19.2

---

Item-by-item account of viability of PBM cells relative to control
test system: PBM cells; test: Cell viability resazurin assay, PBM cells; type: cell-based, human; details: 24 h incubation, 0.5 µM, ± SD
Please state the number and follow it with the unit.

COMPOUND: O=C1C=CC(=O)[N-]1.[C-]#[O+].[C-]#[O+].[Fe+2].c1cc[cH-]c1 [compound 1, CpFe(CO)2(η^1-N-maleimidato)]
EXPERIMENTAL_VALUE: 106.05 ± 1.67%
--
COMPOUND: O=C1C=CC(=O)[N-]1.[C-]#[O+].[Fe+2].c1cc[cH-]c1.c1ccc(OP(Oc2ccccc2)Oc2ccccc2)cc1 [3b, CpFe(CO)(P(OPh)3)(η^1-N-maleimidato)]
EXPERIMENTAL_VALUE: 97.8 ± 2.01%
--
COMPOUND: CCOP(OCC)OCC.O=C1C=CC(=O)[N-]1.[C-]#[O+].[Fe+2].c1cc[cH-]c1 [3a]
EXPERIMENTAL_VALUE: 102.49 ± 0.39%

Lab note: measured viability of PBM cells relative to control of O=C1C=CC(=O)[N-]1.[C-]#[O+].[Fe+2].c1cc[cH-]c1.c1ccc(P(c2ccccc2)c2ccccc2)cc1 [2a, CpFe(CO)(PPh3)(η^1-N-maleimidato)] was 101.47 ± 3.95%

Record summary for O=C1C=CC(=O)[N-]1.[C-]#[O+].[Fe+2].c1cc[cH-]c1.c1coc(P(c2ccco2)c2ccco2)c1 [2b, CpFe(CO)(P(Fu)3)(η^1-N-maleimidato)] : reported viability of PBM cells relative to control = 105.37 ± 7.62%

---

test system: A549 cells; test: Cell viability resazurin assay, A549 cells; assay type: cell-based, human; conditions: 2 h incubation, 250 µM, ± SD
QUANTITY_NAME: viability of A549 cells relative to control (%)
Respond with the bare value in %.

Solved entries (count: 4):
SMILES_REPRESENTATION: O=C1C=CC(=O)[N-]1.[C-]#[O+].[C-]#[O+].[Fe+2].c1cc[cH-]c1
UNIT_OF_MEASUREMENT: %
EXPERIMENTAL_VALUE: 36.35
--
SMILES_REPRESENTATION: CCOP(OCC)OCC.O=C1C=CC(=O)[N-]1.[C-]#[O+].[Fe+2].c1cc[cH-]c1
UNIT_OF_MEASUREMENT: %
EXPERIMENTAL_VALUE: 68.50
--
SMILES_REPRESENTATION: O=C1C=CC(=O)[N-]1.[C-]#[O+].[Fe+2].c1cc[cH-]c1.c1coc(P(c2ccco2)c2ccco2)c1
UNIT_OF_MEASUREMENT: %
EXPERIMENTAL_VALUE: 40.75
--
SMILES_REPRESENTATION: O=C1C=CC(=O)[N-]1.[C-]#[O+].[Fe+2].c1cc[cH-]c1.c1ccc(P(c2ccccc2)c2ccccc2)cc1
UNIT_OF_MEASUREMENT: %
EXPERIMENTAL_VALUE: 57.40

Now for a further molecule.
Reported viability of A549 cells relative to control of `O=C1C=CC(=O)[N-]1.[C-]#[O+].[Fe+2].c1cc[cH-]c1.c1ccc(OP(Oc2ccccc2)Oc2ccccc2)cc1` : 97.95
